- Target Entity: T1, human plasma kallikrein (human, UniProt P03952 20-390; P03952 391-638)
- T1 construct: two disulfide-linked chains; NP_000883.2; also called pKal; hpKal
- T1 sequence (P03952 20-390 limits assumed, chain 1 of 2): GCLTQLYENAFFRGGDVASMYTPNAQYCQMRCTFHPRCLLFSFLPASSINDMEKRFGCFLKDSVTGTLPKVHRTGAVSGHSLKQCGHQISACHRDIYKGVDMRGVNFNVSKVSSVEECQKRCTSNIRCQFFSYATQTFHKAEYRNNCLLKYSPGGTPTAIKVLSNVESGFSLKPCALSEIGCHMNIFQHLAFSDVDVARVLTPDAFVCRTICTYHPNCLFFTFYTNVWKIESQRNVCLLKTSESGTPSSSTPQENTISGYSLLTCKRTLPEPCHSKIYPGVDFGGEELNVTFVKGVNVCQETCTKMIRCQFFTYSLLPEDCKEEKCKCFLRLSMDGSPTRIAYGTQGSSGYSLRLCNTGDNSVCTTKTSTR
- T1 sequence (P03952 391-638 limits assumed, chain 2 of 2): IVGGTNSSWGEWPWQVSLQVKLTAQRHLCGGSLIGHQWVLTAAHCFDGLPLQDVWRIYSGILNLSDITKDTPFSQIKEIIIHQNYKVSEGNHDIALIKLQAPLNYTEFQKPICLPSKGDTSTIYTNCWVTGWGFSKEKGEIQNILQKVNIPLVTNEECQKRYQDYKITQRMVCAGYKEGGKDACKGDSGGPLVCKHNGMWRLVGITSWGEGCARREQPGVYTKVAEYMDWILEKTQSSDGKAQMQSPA
- Assay Remarks: ELISA, biotinylated pKal signal over streptavidin background
Documented ELISA (T/B) across a set of binders
Please give the numeric answer without any surrounding text.

The binder listed as M9-A08 (Fab, V domains shown) VH: EVQLLESGGGLVQPGGSLRLSCAASGFTFSAYEMWWVRQAPGKGLEWVSYIGSSGGSTSYADSVKGRFTISRDNSKNTLYLQMNSLRAEDTAVYYCTGGNSSSFDAFDIWGQGTMVTVSS VL: DIQMTQSPSSLSASVGDRVTVTCRASQRISTYLNWYQQKPGKAPKLLISGASSLQSGVPSRFSGSGSGTDFTLTISSLQPDDFATYYCQQSYNTPRTFGQGTKVEIR shows ELISA (T/B) equal to 5.5

Continuing:
The binder listed as M29-D10 (Fab, V domains shown) VH: EVQLLESGGGLVQPGGSLRLSCAASGFTFSWYPMYWVRQAPGKGLEWVSSIGSSGGPTPYADSVKGRFTISRDNSKNTLYLQMNSLRAEDTAVYYCARWADYGGSLDYWGQGTLVTVSS VL: DIQMTQSPSSLSASVGDTVSITCRASQSITIYLNWYQHKPGKAPNLLIYGASNLHSGVPSRFSGSGSGTDFTLTISSLQPEDFATYYCQQSYDTPLTFGGGTKVEIK shows ELISA (T/B) equal to 23.6
